assayed_system: BTK (Homo sapiens)
Sequence (Q06187 whole entry): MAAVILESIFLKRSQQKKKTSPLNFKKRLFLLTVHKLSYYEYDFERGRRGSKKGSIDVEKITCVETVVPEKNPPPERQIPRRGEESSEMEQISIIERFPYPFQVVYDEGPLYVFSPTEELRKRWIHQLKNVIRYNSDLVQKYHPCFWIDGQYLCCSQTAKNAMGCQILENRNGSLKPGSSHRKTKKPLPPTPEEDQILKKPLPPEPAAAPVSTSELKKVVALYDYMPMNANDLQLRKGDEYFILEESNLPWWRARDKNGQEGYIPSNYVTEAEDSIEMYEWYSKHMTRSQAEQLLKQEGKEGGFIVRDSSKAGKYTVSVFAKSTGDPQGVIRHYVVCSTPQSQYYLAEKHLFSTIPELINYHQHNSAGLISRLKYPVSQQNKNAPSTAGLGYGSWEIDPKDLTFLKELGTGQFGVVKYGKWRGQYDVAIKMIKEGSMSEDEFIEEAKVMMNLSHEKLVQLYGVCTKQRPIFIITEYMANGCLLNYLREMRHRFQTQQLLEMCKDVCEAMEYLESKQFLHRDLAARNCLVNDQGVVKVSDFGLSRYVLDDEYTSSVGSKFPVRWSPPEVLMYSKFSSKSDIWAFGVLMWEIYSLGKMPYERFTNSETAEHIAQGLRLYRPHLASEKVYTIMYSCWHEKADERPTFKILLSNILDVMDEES
test_summary: Degradation of BTK protein in Namalwa cells (Western blot; DC50, Dmax)
setup_conditions: BTK degradation; cell line not given
Kindly state DC50 for each of the entries shown.

molecule="NC(=O)c1c(-c2ccc(Oc3ccccc3)cc2)nn2c1NCC[C@H]2C1CCN(C(=O)N2CCC(CC3CCN(c4ccc5c(c4)C(=O)N(C4CCC(=O)NC4=O)C5=O)CC3)CC2)CC1 (stereo partly shown) [Compound 293]" assayed_system="BTK (Homo sapiens)" reported_metric=DC50 result="0.01 to 0.05 µM"

Provide each entry's DC50 from the list below.
1. Nc1ncnc2c1c(-c1ccc(Oc3ccccc3)cc1)nn2C1CCN(CC2CCN(CC3CCN(c4ccc5c(c4)C(=O)N(C4CCC(=O)NC4=O)C5=O)CC3)CC2)CC1 (stereo not shown) [Compound 199]
2. Nc1ncnc2c1c(-c1ccc(Oc3ccccc3)cc1)nn2C1CCN(C2CCN(CCCC3CCN(c4ccc5c(c4)C(=O)N(C4CCC(=O)NC4=O)C5=O)CC3)CC2)CC1 (stereo not shown) [Compound 225]
3. NC(=O)c1c(-c2ccc(Oc3ccccc3)cc2)nn2c1NCCC2C1CCN(CC2CCN(C(=O)N3CCN(CC4CCN(c5ccc6c(c5)C(=O)N(C5CCC(=O)NC5=O)C6=O)CC4)CC3)CC2)CC1 (stereo not shown) [Compound 371]

### Response
0.01 to 0.05 µM
> 0.05 µM
0.01 to 0.05 µM

Please supply DC50 for each of the following items, keeping them in order.
1. Nc1ncnc2c1c(-c1ccc(Oc3ccccc3)cc1)nn2C1CCN(C2CCN(C(=O)N3CCN(CCCN4CCC(c5ccc6c(c5)C(=O)N(C5CCC(=O)NC5=O)C6=O)CC4)CC3)CC2)CC1 (stereo not shown) [Compound 261]
2. NC(=O)c1c(-c2ccc(Oc3ccccc3)cc2)nn2c1NCC[C@H]2C1CCN(CC2CCN(CCN3CCC(c4ccc5c(c4)C(=O)N(C4CCC(=O)NC4=O)C5=O)CC3)CC2)CC1 (stereo partly shown) [Compound 335]
3. NC(=O)c1c(-c2ccc(Oc3ccccc3)cc2)nn2c1NCCC2C1CCN(CC2CCN(CCN3CCC(c4ccc5c(c4)CN(C4CCC(=O)NC4=O)C5=O)CC3)CC2)CC1 (stereo not shown) [Compound 320]
4. Nc1ncnc2c1c(-c1ccc(Oc3ccccc3)cc1)nn2C1CCN(C2CCN(C(=O)N3CCN(CCCN4CCN(c5ccc6c(c5)C(=O)N(C5CCC(=O)NC5=O)C6=O)CC4)CC3)CC2)CC1 (stereo not shown) [Compound 257]
5. NC(=O)c1c(-c2ccc(Oc3ccccc3)cc2)nn2c1NCCC2C1CCN(C2CCN(C(=O)N3CCN(c4ccc5c(c4)CN(C4CCC(=O)NC4=O)C5=O)CC3)CC2)CC1 (stereo not shown) [Compound 338]

### Response
1. 0.01 to 0.05 µM
2. > 0.05 µM
3. 0.01 to 0.05 µM
4. > 0.05 µM
5. > 0.05 µM

Note to self: DC50 recorded for Nc1ncnc2c1c(-c1ccc(Oc3ccccc3)cc1)nn2C1CCN(C2CCN(C(=O)N3CCC(c4ccc5c(c4)C(=O)N(C4CCC(=O)NC4=O)C5=O)CC3)CC2)CC1 (stereo not shown) [Compound 227] was > 0.05 µM

* * *

Provide the reported DC50 of each item.
assayed_system: BTK (Homo sapiens)
test_summary: Degradation of BTK protein in Namalwa cells (Western blot; DC50, Dmax)
setup_conditions: read-out: DC50 (BTK degradation); concentration giving 50% reduction of BTK expression level; cell line not given

compound="NC1=NC=NC2C1C(c1ccc(Oc3ccccc3)cc1)=NN2C1CCN(C(=O)N2CC(C3CN(c4ccc5c(c4)CN([C@H]4CCC(=O)NC4=O)C5=O)C3)C2)CC1 (some centres unmarked) [Compound 495]" result="< 10 nM"
compound="Nc1ncnc2c1c(-c1ccc(Oc3ccccc3)cc1)nn2C1CCN(C[C@@H]2CCN(C[C@@H]3CCN(c4ccc5c(c4)C(=O)N(C4CCC(=O)NC4=O)C5=O)C3)C2)CC1 (some centres unmarked) [Compound 447c]" result="< 10 nM"
compound="Nc1ncnc2c1c(-c1ccc(Oc3ccccc3)cc1)nn2C1CCN(CCN2CCC(CN3CCC(c4ccc5c(c4)oc(=O)n5C4CCC(=O)NC4=O)CC3)CC2)CC1 (centres unmarked) [Compound 545]" result="10 to 50 nM"
compound="Nc1ncnc2c1c(-c1ccc(Oc3ccccc3)cc1)nn2C1CCN(CC2CCN(CC3CN(CC4CN(c5ccc6c(c5)CN(C5CCC(=O)NC5=O)C6=O)C4)C3)C2)CC1 (centres unmarked) [Compound 428]" result="10 to 50 nM"

Can you give me DC50 for all of these, one by one?
1. Nc1ncnc2c1c(-c1ccc(Oc3ccccc3)cc1)nn2[C@@H]1CCCN(C2CCN(CC3CCN(c4ccc(N5CCC(=O)NC5=O)cc4)CC3)CC2)C1 [Compound 528]
2. Nc1ncnc2c1c(-c1ccc(Oc3ccccc3)cc1)nn2C1CCN(CCN2CCN(CCCSc3ccc4c(c3)CN(C3CCC(=O)NC3=O)C4=O)CC2)CC1 (centres unmarked) [Compound 468]
3. Nc1ncnc2c1c(-c1ccc(Oc3ccccc3)cc1)nn2C1CCN(C[C@@H]2CCN(CC3CN(CC4CN(c5ccc6c(c5)C(=O)N(C5CCC(=O)NC5=O)C6=O)C4)C3)C2)CC1 (some centres unmarked) [Compound 427b]
4. Nc1ncnc2c1c(-c1ccc(Oc3ccccc3)cc1)nn2C1CCN(CCN2CCC(CC3CCN(c4ccc(NC5CCC(=O)NC5=O)cc4)CC3)CC2)CC1 (centres unmarked) [Compound 559]
5. NC1=NC=NC2C1C(c1ccc(Oc3ccccc3)cc1)=NN2C1CCN(C(=O)N2CCN(C3CN(c4ccc5c(c4)C(=O)N(C4CCC(=O)NC4=O)C5=O)C3)CC2)CC1 (centres unmarked) [Compound 503]
6. Nc1ncnc2c1c(-c1ccc(Oc3ccccc3)cc1)nn2C1CCN(CCN2CCC(CN3CCN(c4ccc5c(c4)C(=O)N(C4CCC(=O)NC4=O)C5=O)CC3)CC2)CC1 (centres unmarked) [Compound 453]

### Response
1: 10 to 50 nM; 2: < 10 nM; 3: > 50 nM; 4: < 10 nM; 5: 10 to 50 nM; 6: 10 to 50 nM

GET /value?item= Nc1ncnc2c1c(-c1ccc(Oc3ccccc3)cc1)nn2C1CCN(CC2CN(C[C@@H]3CCN(c4ccc5c(c4)C(=O)N(C4CCC(=O)NC4=O)C5=O)C3)C2)CC1 (some centres unmarked) [Compound 443b] &field=DC50 returns < 10 nM

* * *

assayed_system: BTK (Homo sapiens)
test_summary: BTK degradation, DC50 and Dmax of Table 1 (cell line not given)
Type: cell-based
Design: endogenous in cells
setup_conditions: concentration giving 50% reduction of BTK expression level
Kindly state DC50 for each of the entries shown.

compound="Nc1ncnc2c1c(-c1ccc(Oc3ccccc3)cc1)nn2[C@@H]1CCCN(C(=O)N2CCC(N3CCN(c4ccc5c(c4)CN(C4CCC(=O)NC4=O)C5=O)CC3)CC2)C1 (some centres unmarked)" result="< 10 nM"
compound="Nc1ncnc2c1c(-c1ccc(Oc3ccccc3)cc1)nn2[C@@H]1CCCN(C(=O)N2CCC(CN3CCN(c4ccc5c(c4)CN(C4CCC(=O)NC4=O)C5=O)CC3)CC2)C1 (some centres unmarked)" result="< 10 nM"
compound="Nc1ncnc2c1c(-c1ccc(Oc3ccccc3)cc1)nn2[C@@H]1CCCN(CC2CCN(C(=O)N3CCC(N4CCN(c5ccc6c(c5)C(=O)N(C5CCC(=O)NC5=O)C6=O)CC4)CC3)CC2)C1 (some centres unmarked)" result="< 10 nM"
compound="Nc1ncnc2c1c(-c1ccc(Oc3ccccc3)cc1)nn2[C@@H]1CCCN(C(=O)N2CCC(CCCN3CCC(c4ccc5c(c4)CN(C4CCC(=O)NC4=O)C5=O)CC3)CC2)C1 (some centres unmarked)" result="> 50 nM"

Now consider the entry below.
# DC50 (compound: Nc1ncnc2c1c(-c1ccc(Oc3ccccc3)cc1)nn2C1CCN(CC2CCN(C(=O)N3CCC(N4CCN(c5ccc6c(c5)CN(C5CCC(=O)NC5=O)C6=O)CC4)CC3)CC2)CC1 (centres unmarked) ) is 10 to 50 nM

* * *

assayed_system: BTK (Homo sapiens)
test_summary: Degradation of BTK protein in Namalwa cells (Western blot; DC50, Dmax)
setup_conditions: read-out: DC50 (BTK degradation); concentration giving 50% reduction of BTK expression level; cell line not given
reported_metric: DC50

compound="Nc1ncnc2c1c(-c1ccc(Oc3ccccc3)cc1)nn2[C@@H]1CCCN(CCNC(=O)C2CCN(c3ccc4c(c3)C(=O)N(C3CCC(=O)NC3=O)C4=O)CC2)C1 (some centres unmarked)" reported_metric=DC50 result="10 to 50 nM"
compound=Nc1ncnc2c1c(-c1ccc(Oc3ccccc3)cc1)nn2C1CCN(C2CCN(CCCC#Cc3ccc(N4CCC(=O)NC4=O)cc3)CC2)CC1 reported_metric=DC50 result="> 50 nM"
compound=Nc1ncnc2c1c(-c1ccc(Oc3ccccc3)cc1)nn2[C@@H]1CCCN(C(=O)N2CC(N3CCN(c4ccc5c(c4)C(=O)N([C@H]4CCC(=O)NC4=O)C5=O)CC3)C2)C1 reported_metric=DC50 result="< 10 nM"

Provide each entry's DC50 from the list below.
1. Nc1ncnc2c1c(-c1ccc(Oc3ccccc3)cc1)nn2[C@@H]1CCCN(CC2CCN(c3ccc(N4CCC(=O)NC4=O)cc3)CC2)C1
2. Nc1ncnc2c1c(-c1ccc(Oc3ccccc3)cc1)nn2C1CCN(C(=O)N2CC(N3CCN(c4ccc5c(c4)C(=O)N([C@@H]4CCC(=O)NC4=O)C5=O)CC3)C2)CC1

### Response
["10 to 50 nM", "< 10 nM"]

The reported numbers originate from patent US12139492B2.
